Biological target: JAK2 (JH1domain-catalytic, Y1007F,Y1008F) kinase (Homo sapiens, UniProt O60674, Y1007F/Y1008F)
Construct: JAK2 (JH1domain-catalytic, Y1007F,Y1008F) kinase was expressed as N-terminal fusion
Sequence (O60674 849-1124 Y1007F/Y1008F limits assumed): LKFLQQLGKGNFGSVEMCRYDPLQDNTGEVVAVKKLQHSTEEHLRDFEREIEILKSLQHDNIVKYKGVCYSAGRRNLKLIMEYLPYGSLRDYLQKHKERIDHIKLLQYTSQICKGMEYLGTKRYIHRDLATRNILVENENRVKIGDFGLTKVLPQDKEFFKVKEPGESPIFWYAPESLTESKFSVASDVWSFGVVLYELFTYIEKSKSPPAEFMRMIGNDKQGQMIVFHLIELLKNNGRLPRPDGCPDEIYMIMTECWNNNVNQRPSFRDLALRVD
Test: JAK2 JH1 Domain Binding Assay
Details: qPCR readout
pKd: −log10 of the molar value.
readout: pKd

Consider the reported pKd for these compounds:
compound	readout	test_result
CNc1cn2ncc(Oc3cnc4nc(Nc5cc(N6CCN(C)CC6)cc(C(F)(F)F)c5)n(C)c4c3Cl)c2cn1	pKd	7.30 to 8.00
CO[C@H]1CCN(Cc2cc(Nc3nc4ncc(Oc5cnn6ccncc56)c(Cl)c4n3C)cc(C(F)(F)F)c2)C1	pKd	> 8.00

So, `CNc1nccn2ncc(Oc3cnc4nc(Nc5cc(OCC6CN(C)C6)cc(C(F)(F)F)c5)n(C)c4c3Cl)c12` ? Its pKd was 7.30 to 8.00

For this compound ( COc1c(Oc2cnn3ccccc23)cnc2nc(Nc3cc(C4CC4)cn([C@@H]4CC[C@H]4O)c3=O)n(C)c12 (single isomer, unassigned) ), measured pKd is > 8.00

Sure, the documented pKd for `CCc1cc(Nc2nc3ncc(Oc4cnn5ccncc45)c(Cl)c3n2C)cc(C(=O)N2CCC2)n1` is > 8.00

# compound `Cn1nc(C2CC2)cc(Nc2nc3ncc(Oc4cnn5ccccc45)c(Cl)c3n2C)c1=O` ; its pKd = > 8.00

Data point: `CNc1cn2ncc(Oc3cnc4nc(Nc5cc(CN6CCC6)cc(C(F)(F)F)c5)n(C)c4c3Cl)c2cn1` ; pKd = 6.00 to 7.30
